Subject of test: Delta-type opioid receptor (Rattus norvegicus, UniProt P33533)
Sequence (P33533 whole entry): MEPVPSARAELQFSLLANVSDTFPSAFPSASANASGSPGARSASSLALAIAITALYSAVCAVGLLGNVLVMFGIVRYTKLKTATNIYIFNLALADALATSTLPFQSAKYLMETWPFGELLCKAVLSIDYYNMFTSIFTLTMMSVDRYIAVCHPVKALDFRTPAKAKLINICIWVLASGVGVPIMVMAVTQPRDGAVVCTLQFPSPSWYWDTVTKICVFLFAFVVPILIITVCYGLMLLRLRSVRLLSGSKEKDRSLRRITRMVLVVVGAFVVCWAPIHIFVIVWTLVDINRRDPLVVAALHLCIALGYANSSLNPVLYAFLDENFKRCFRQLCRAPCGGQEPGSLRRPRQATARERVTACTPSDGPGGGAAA
Run description: Inhibition of [3H]DPDPE binding to Opioid receptor delta 1 of rat brain P2 synaptosomes
pKi: −log10 of the molar value. Square brackets hold non-standard residues; d marks the D form. Peptide text beside a SMILES is read from it. Dmt = Cc1cc(O)cc(C)c1C[C@H](N)C(=O)O; Tic = O=C(O)[C@@H]1Cc2ccccc2CN1
Lab note: compare pKi against 10. Equal or greater, write 1 (yes). Smaller, write 0 (no).

INSERT INTO measurements (compound, subject_of_test, category) VALUES
  ('Cc1cc(O)cc(C)c1C[C@H](N)C(=O)N1Cc2ccccc2C[C@H]1C(=O)N[C@H](C)C(N)=O (H-[Dmt]-[Tic]-[dA]-NH2)', 'Delta-type opioid receptor (Rattus norvegicus, UniProt P33533)', '0 (no)'),
  ('Cc1cc(O)cc(C)c1C[C@H](N)C(=O)N1Cc2ccccc2C[C@H]1C(=O)N[C@@H](CC(=O)O)C(N)=O (H-[Dmt]-[Tic]-Asp-NH2)', 'Delta-type opioid receptor (Rattus norvegicus, UniProt P33533)', '0 (no)'),
  ('Cc1cc(O)cc(C)c1C[C@H](N)C(=O)N1Cc2ccccc2C[C@H]1C(=O)N[C@@H](Cc1nc2ccccc2[nH]1)C(=O)O', 'Delta-type opioid receptor (Rattus norvegicus, UniProt P33533)', '1 (yes)'),
  ('Cc1cc(O)cc(C)c1C[C@H](N)C(=O)N1Cc2ccccc2C[C@H]1C(=O)N[C@H](C)c1nc2ccccc2[nH]1', 'Delta-type opioid receptor (Rattus norvegicus, UniProt P33533)', '1 (yes)'),
  ('CC(C)[C@H](NC(=O)[C@H](CC(=O)O)NC(=O)[C@H](Cc1ccccc1)NC(=O)[C@H](C)NC(=O)[C@@H](N)Cc1ccc(O)cc1)C(=O)N[C@H](C(=O)NCC(=O)O)C(C)C', 'Delta-type opioid receptor (Rattus norvegicus, UniProt P33533)', '0 (no)'),
  ('Cc1cc(O)cc(C)c1C[C@H](N)C(=O)N1Cc2ccccc2C[C@H]1C(=O)N[C@@H](CC(N)=O)C(=O)O (H-[Dmt]-[Tic]-Asn-OH)', 'Delta-type opioid receptor (Rattus norvegicus, UniProt P33533)', '0 (no)');

* * *

Subject of test: Mu-type opioid receptor (Cavia porcellus)
Run description: In vitro inhibitory activity against electrically evoked contractions of guinea pig ileum (GPI)
pIC50: −log10 of the molar value. Square brackets hold non-standard residues; d marks the D form. Peptide text beside a SMILES is read from it. Dmt = Cc1cc(O)cc(C)c1C[C@H](N)C(=O)O; Tic = O=C(O)[C@@H]1Cc2ccccc2CN1
Value kind: pIC50

INSERT INTO measurements (compound, value_kind, qualifier_symbol, measurement) VALUES
  ('Cc1cc(O)cc(C)c1C[C@H](N)C(=O)N1Cc2ccccc2C[C@H]1C(=O)N[C@H](C)c1nc2ccccc2[nH]1', 'pIC50', '=', 8.20),
  ('Cc1cc(O)cc(C)c1C[C@H](N)C(=O)N1Cc2ccccc2C[C@H]1C(=O)N[C@@H](CC(N)=O)C(=O)O (H-[Dmt]-[Tic]-Asn-OH)', 'pIC50', '<', 5.00),
  ('Cc1cc(O)cc(C)c1C[C@H](N)C(=O)N1Cc2ccccc2C[C@H]1C(=O)NCc1nc2ccccc2[nH]1', 'pIC50', '=', 7.39),
  ('CC(C)[C@H](NC(=O)[C@H](CC(=O)O)NC(=O)[C@H](Cc1ccccc1)NC(=O)[C@H](C)NC(=O)[C@@H](N)Cc1ccc(O)cc1)C(=O)N[C@H](C(=O)NCC(=O)O)C(C)C', 'pIC50', '<', 5.92),
  ('Cc1cc(O)cc(C)c1C[C@H](N)C(=O)N1Cc2ccccc2C[C@H]1C(=O)N[C@H](C)C(N)=O (H-[Dmt]-[Tic]-[dA]-NH2)', 'pIC50', '<', 5.00),
  ('Cc1cc(O)cc(C)c1C[C@H](N)C(=O)N1Cc2ccccc2C[C@H]1C(=O)N[C@@H](Cc1nc2ccccc2[nH]1)C(=O)O', 'pIC50', '=', 5.81),
  ('C[C@@H](NC(=O)[C@@H](N)Cc1ccc(O)cc1)C(=O)N[C@@H](Cc1ccccc1)C(=O)NCC(=O)N[C@@H](Cc1ccc(O)cc1)C(=O)N1CCC[C@H]1C(=O)N[C@@H](CO)C(N)=O [DERMORPHIN]', 'pIC50', '=', 8.92);

* * *

Measured Ke values are reported for all entries that follow.
Subject of test: Delta-type opioid receptor (Mus musculus)
Sequence (P32300 whole entry): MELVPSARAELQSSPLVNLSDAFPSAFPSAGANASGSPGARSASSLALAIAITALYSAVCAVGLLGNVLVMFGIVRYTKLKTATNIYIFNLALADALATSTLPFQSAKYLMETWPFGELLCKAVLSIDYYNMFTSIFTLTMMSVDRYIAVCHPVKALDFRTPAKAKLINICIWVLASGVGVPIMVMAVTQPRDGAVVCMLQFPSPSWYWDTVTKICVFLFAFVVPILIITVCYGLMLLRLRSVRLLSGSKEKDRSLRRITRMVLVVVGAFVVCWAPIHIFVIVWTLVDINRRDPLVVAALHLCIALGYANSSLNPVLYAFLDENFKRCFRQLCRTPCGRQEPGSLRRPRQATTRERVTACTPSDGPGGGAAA
Stated conditions: Vas deferens
Description: In vitro inhibitory activity against electrically evoked contractions of the mouse vas deferens (MVD)
Square brackets hold non-standard residues; d marks the D form. Peptide text beside a SMILES is read from it. Dmt = Cc1cc(O)cc(C)c1C[C@H](N)C(=O)O; Tic = O=C(O)[C@@H]1Cc2ccccc2CN1
Value kind: Ke (nM)

INSERT INTO assay_data (compound, value_kind, result_units, measurement) VALUES
  ('Cc1cc(O)cc(C)c1C[C@H](N)C(=O)N1Cc2ccccc2C[C@H]1C(=O)N[C@@H](CC(N)=O)C(=O)O (H-[Dmt]-[Tic]-Asn-OH)', 'Ke', 'nM', 5.88),
  ('Cc1cc(O)cc(C)c1C[C@H](N)C(=O)N1Cc2ccccc2C[C@H]1C(=O)NCCc1nc2ccccc2[nH]1', 'Ke', 'nM', 4.78),
  ('Cc1cc(O)cc(C)c1C[C@H](N)C(=O)N1Cc2ccccc2C[C@H]1C(=O)N[C@H](C)C(N)=O (H-[Dmt]-[Tic]-[dA]-NH2)', 'Ke', 'nM', 25.1),
  ('Cc1cc(O)cc(C)c1C[C@H](N)C(=O)N1Cc2ccccc2C[C@H]1C(=O)N[C@@H](C)C(N)=O (H-[Dmt]-[Tic]-Ala-NH2)', 'Ke', 'nM', 10);

* * *

Subject of test: Delta-type opioid receptor (Mus musculus)
Run description: In vitro inhibitory activity against electrically evoked contractions of in mouse vas deferens (MVD)
pIC50: −log10 of the molar value.
Value kind: pIC50

INSERT INTO results (smiles_str, measurement) VALUES
  ('CC(C)[C@H](NC(=O)[C@H](CC(=O)O)NC(=O)[C@H](Cc1ccccc1)NC(=O)[C@H](C)NC(=O)[C@@H](N)Cc1ccc(O)cc1)C(=O)N[C@H](C(=O)NCC(=O)O)C(C)C', 9.52),
  ('Cc1cc(O)cc(C)c1C[C@H](N)C(=O)N1Cc2ccccc2C[C@H]1C(=O)N[C@H](C)c1nc2ccccc2[nH]1', 10.59),
  ('Cc1cc(O)cc(C)c1C[C@H](N)C(=O)N1Cc2ccccc2C[C@H]1C(=O)N[C@@H](Cc1nc2ccccc2[nH]1)C(=O)O', 10.82),
  ('Cc1cc(O)cc(C)c1C[C@H](N)C(=O)N1Cc2ccccc2C[C@H]1C(=O)NCc1nc2ccccc2[nH]1', 10.46);

* * *

Subject of test: Mu-type opioid receptor (Cavia porcellus, UniProt P97266)
Sequence (P97266 whole entry): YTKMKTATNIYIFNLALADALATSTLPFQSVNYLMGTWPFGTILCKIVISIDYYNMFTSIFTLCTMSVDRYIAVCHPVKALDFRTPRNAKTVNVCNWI
Run description: In vitro inhibitory activity against electrically evoked contractions of guinea pig ileum (GPI)
Square brackets hold non-standard residues; d marks the D form. Peptide text beside a SMILES is read from it. Dmt = Cc1cc(O)cc(C)c1C[C@H](N)C(=O)O; Tic = O=C(O)[C@@H]1Cc2ccccc2CN1
Value kind: IC50 (nM)

INSERT INTO measurements (compound, value_kind, qualifier_symbol, measurement) VALUES
  ('Cc1cc(O)cc(C)c1C[C@H](N)C(=O)N1Cc2ccccc2C[C@H]1C(=O)N[C@@H](CC(=O)O)C(N)=O (H-[Dmt]-[Tic]-Asp-NH2)', 'IC50', '>', 10000),
  ('Cc1cc(O)cc(C)c1C[C@H](N)C(=O)N1Cc2ccccc2C[C@H]1C(=O)N[C@@H](C)c1nc2ccccc2[nH]1', 'IC50', '=', 71.7),
  ('Cc1cc(O)cc(C)c1C[C@H](N)C(=O)N1Cc2ccccc2C[C@H]1C(=O)NCCc1nc2ccccc2[nH]1', 'IC50', '=', 108);

* * *

Subject of test: Mu-type opioid receptor (Rattus norvegicus)
Sequence (P33535 whole entry): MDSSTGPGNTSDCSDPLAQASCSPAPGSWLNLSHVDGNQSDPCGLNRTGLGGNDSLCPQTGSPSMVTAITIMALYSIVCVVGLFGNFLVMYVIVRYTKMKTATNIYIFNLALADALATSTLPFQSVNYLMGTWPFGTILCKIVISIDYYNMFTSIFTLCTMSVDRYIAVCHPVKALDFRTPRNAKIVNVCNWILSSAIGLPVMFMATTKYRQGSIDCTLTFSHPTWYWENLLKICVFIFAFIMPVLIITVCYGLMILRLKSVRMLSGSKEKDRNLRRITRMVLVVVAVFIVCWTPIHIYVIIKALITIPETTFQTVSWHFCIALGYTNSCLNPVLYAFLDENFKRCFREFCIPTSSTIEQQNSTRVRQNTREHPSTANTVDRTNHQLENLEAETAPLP
Run description: Inhibition of [3H]DAGO binding to Opioid receptor mu 1 of rat brain P2 synaptosomes
pKi: −log10 of the molar value. Square brackets hold non-standard residues; d marks the D form. Peptide text beside a SMILES is read from it. Dmt = Cc1cc(O)cc(C)c1C[C@H](N)C(=O)O; Tic = O=C(O)[C@@H]1Cc2ccccc2CN1
Value kind: pKi

INSERT INTO measurements (compound, measurement) VALUES
  ('Cc1cc(O)cc(C)c1C[C@H](N)C(=O)N1Cc2ccccc2C[C@H]1C(=O)N[C@@H](CC(=O)O)C(N)=O (H-[Dmt]-[Tic]-Asp-NH2)', 5.59),
  ('Cc1cc(O)cc(C)c1C[C@H](N)C(=O)N1Cc2ccccc2C[C@H]1C(=O)N[C@@H](C)c1nc2ccccc2[nH]1', 9.39),
  ('Cc1cc(O)cc(C)c1C[C@H](N)C(=O)N1Cc2ccccc2C[C@H]1C(=O)N[C@H](C)c1nc2ccccc2[nH]1', 9.63),
  ('Cc1cc(O)cc(C)c1C[C@H](N)C(=O)N1Cc2ccccc2C[C@H]1C(=O)N[C@H](C)C(N)=O (H-[Dmt]-[Tic]-[dA]-NH2)', 7.32);
